- assayed target: SMYD3 (Homo sapiens (Human))
- Sequence (Q9H7B4 whole entry): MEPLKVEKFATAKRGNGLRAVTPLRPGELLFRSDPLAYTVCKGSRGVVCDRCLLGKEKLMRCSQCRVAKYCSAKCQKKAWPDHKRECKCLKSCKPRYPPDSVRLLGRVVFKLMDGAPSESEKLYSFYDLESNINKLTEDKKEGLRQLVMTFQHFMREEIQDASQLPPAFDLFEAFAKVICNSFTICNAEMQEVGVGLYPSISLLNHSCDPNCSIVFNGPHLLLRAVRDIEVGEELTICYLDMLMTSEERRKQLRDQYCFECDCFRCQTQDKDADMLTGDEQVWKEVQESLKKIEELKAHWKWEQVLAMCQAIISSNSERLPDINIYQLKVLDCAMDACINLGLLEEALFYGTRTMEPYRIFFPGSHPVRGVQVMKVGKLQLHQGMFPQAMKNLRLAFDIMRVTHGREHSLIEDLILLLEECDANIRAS
- test protocol: SMYD3 cell assay (Trimethyl-MEKK2 In-Cell Western in 293T/17 cells)
- Type: cell-based
- stated conditions: average of n = 1 to n = 50; read-out: SMYD3 Cell IC50
# note: exactly 800 nM is not below, so it is f; use t for IC50 strictly under it

Worked set:
- compound: "O=C(NC1C[C@H]2CCC[C@H](C1)N2S(=O)(=O)c1ccc(Cl)cn1)c1cc(C2CC2)on1 (stereo partly drawn) [compound 733]"
  label value: "f"
- compound: "COCCN1CCC(CS(=O)(=O)N2CC[C@H](NC(=O)c3cc(C4CC4)on3)C[C@@H]2Cc2ccccc2)CC1 [compound 720]"
  label value: "f"
- compound: "C[C@H]1CN(S(=O)(=O)CC2CCN(CCN3CCCCC3)CC2)CC[C@H]1NC(=O)c1cc(C2CC2)on1 [compound 693]"
  label value: "f"
- compound: "C[C@@H]1C[C@H](NC(=O)c2cc(C3CC3)on2)CCN1S(=O)(=O)CC1CCN(CCN2CCOCC2)CC1 [compound 676]"
  label value: "f"
- compound: "C[C@H]1C[C@@H](NC(=O)c2cc(C3CC3)on2)CCN1S(=O)(=O)N(C)CCN [compound 677]"
  label value: "f"
- compound: "C[C@H]1CN(S(=O)(=O)N(C)C2CCNCC2)CC[C@H]1NC(=O)c1cc(C2CC2)on1 [compound 653]"
  label value: "t"

Lookup: # strict comparison: is reported IC50 < 800 nM? input = O=C(N[C@H]1C[C@H]2CC[C@@H](C1)N2S(=O)(=O)CCN1CCC(OCc2ccccc2)C1)c1cc(C2CC2)on1 (stereo partly drawn) [compound 726]
Found: f

Lookup: Note, next up: C[C@H]1CN(S(=O)(=O)NC2CCNCC2)CC[C@H]1NC(=O)c1cc(C2CC2)on1 [compound 646]
Found: t

Lookup: Now the same for CNCCS(=O)(=O)N1[C@@H]2CC[C@H]1C[C@@H](NC(=O)c1cc(C3CC3)on1)C2 [compound 649]
Found: t

Data provenance is patent US10577363B2.
